Test system: HEK-293T
procedure_details: Multiplex assay against HEK293T
Type: toxicity, cell-based
condition_label: human, 24 h, 10 µM, compound concentration 10 uM, replicate 1
Exercise: for every item that follows, state its recorded Population Mitochondria Different-Phenotype (%).
Provide only the numeric value, understood in %.

Prompt line: State the recorded Population Mitochondria Different-Phenotype (%) for this entry: `C=CC(=O)Nc1cccc(Oc2nc(Nc3ccc(N4CCN(C)CC4)cc3OC)ncc2Cl)c1`
Response line: 5

Prompt line: State the recorded Population Mitochondria Different-Phenotype (%) for this entry: `C[C@]12CC[C@@H]3c4ccc(O)cc4CC[C@H]3[C@@H]1CC[C@@H]2O`
Response line: 53

Prompt line: State the recorded Population Mitochondria Different-Phenotype (%) for this entry: `CNC(=O)Nc1ccc2c(c1)[C@@]1(CC2)OC(=O)N(CC(=O)N(Cc2ccc(F)cc2)[C@@H](C)C(F)(F)F)C1=O`
Response line: 4

Prompt line: State the recorded Population Mitochondria Different-Phenotype (%) for this entry: `COC(=O)C1=C(C)NC(C)=C(C(=O)OCCCN2CCC(c3ccccc3)(c3ccccc3)CC2)[C@H]1c1cccc([N+](=O)[O-])c1`
Response line: 66

###

System: HEK-293T
procedure_details: Multiplex assay against HEK293T
Format: toxicity, cell-based
condition_label: human, 24 h, 1 µM, compound concentration 1 uM, replicate 2
reported_metric: Population Membrane Permeable-Phenotype (%)
Provide only the numeric value, understood in %.

Prompt line: State the recorded Population Membrane Permeable-Phenotype (%) for this entry: `CNC(=O)c1ccc(Nc2ncc(C(F)(F)F)c(NCc3nccnc3N(C)S(C)(=O)=O)n2)cc1`
Response line: 3

Prompt line: State the recorded Population Membrane Permeable-Phenotype (%) for this entry: `Cl.O=C(O)c1cc(-c2ccc(C3CCNCC3)cc2)c2ccc(-c3ccc(C(F)(F)F)cc3)cc2c1`
Response line: 4

Prompt line: State the recorded Population Membrane Permeable-Phenotype (%) for this entry: `CC(C)Oc1ccccc1C(=O)Nc1ccccc1C(=O)Nc1cccc(S(=O)(=O)C(F)(F)F)c1`
Response line: 3

Prompt line: State the recorded Population Membrane Permeable-Phenotype (%) for this entry: `C=CC(=O)Nc1cccc(Sc2nc(Nc3ccc(N4CCN(C)CC4)cc3)ncc2Cl)c1`
Response line: 6

Prompt line: State the recorded Population Membrane Permeable-Phenotype (%) for this entry: `CNC(=O)Nc1ccc2c(c1)[C@@]1(CC2)OC(=O)N(CC(=O)N(Cc2ccc(F)cc2)[C@@H](C)C(F)(F)F)C1=O`
Response line: 36

Prompt line: State the recorded Population Membrane Permeable-Phenotype (%) for this entry: `COC(=O)C1=C(C)NC(C)=C(C(=O)OCCCN2CCC(c3ccccc3)(c3ccccc3)CC2)[C@H]1c1cccc([N+](=O)[O-])c1`
Response line: 1

Prompt line: State the recorded Population Membrane Permeable-Phenotype (%) for this entry: `CC(C)(C)NC[C@H](O)COc1nsnc1N1CCOCC1`
Response line: 11

Prompt line: State the recorded Population Membrane Permeable-Phenotype (%) for this entry: `C[C@]12CC[C@@H]3c4ccc(O)cc4CC[C@H]3[C@@H]1CC[C@@H]2O`
Response line: 10

###

Tested on: Fibroblast
procedure_details: Multiplex assay against human fibroblast
Assay type: toxicity, cell-based
condition_label: 24 h, 10 µM, compound concentration 10 uM, replicate 1
Exercise: for every item that follows, state its recorded Population Mitochondria Different-Phenotype (%).
Please answer in the form of a number followed by its unit of measurement.

Prompt line: Short answer please: Population Mitochondria Different-Phenotype (%), Fibroblast, entry `CCc1ccc(OCc2ccccc2C(=O)Nc2ccc3nc(C)cc(N)c3c2)cc1.Cl`
Response line: 37%

Prompt line: Short answer please: Population Mitochondria Different-Phenotype (%), Fibroblast, entry `COc1ccccc1CN[C@H]1C2CCN(CC2)[C@H]1C(c1ccccc1)c1ccccc1`
Response line: 41%

Prompt line: Short answer please: Population Mitochondria Different-Phenotype (%), Fibroblast, entry `CCCSc1nc(N[C@@H]2C[C@H]2c2ccc(F)c(F)c2)c2nnn([C@@H]3C[C@H](OCCO)[C@@H](O)[C@H]3O)c2n1`
Response line: 67%

Prompt line: Short answer please: Population Mitochondria Different-Phenotype (%), Fibroblast, entry `CC(C)(C)NC[C@H](O)COc1nsnc1N1CCOCC1`
Response line: 2%

###

Exercise: for every item that follows, state its recorded Population Apoptotic (%).
Test system: HEK-293T
procedure_details: Multiplex assay against HEK293T
Type: toxicity, cell-based
condition_label: human, 12 h, 1 µM, compound concentration 1 uM, replicate 1
Provide only the numeric value, understood in %.

Prompt line: State the recorded Population Apoptotic (%) for this entry: `CCc1ccc(OCc2ccccc2C(=O)Nc2ccc3nc(C)cc(N)c3c2)cc1.Cl`
Response line: 84

Prompt line: State the recorded Population Apoptotic (%) for this entry: `COC(=O)C1=C(C)NC(C)=C(C(=O)OCCCN2CCC(c3ccccc3)(c3ccccc3)CC2)[C@H]1c1cccc([N+](=O)[O-])c1`
Response line: 86

Prompt line: State the recorded Population Apoptotic (%) for this entry: `CC(C)Oc1ccccc1C(=O)Nc1ccccc1C(=O)Nc1cccc(S(=O)(=O)C(F)(F)F)c1`
Response line: 64

Prompt line: State the recorded Population Apoptotic (%) for this entry: Cc1ccc2c(c1)c1c(n2CCc2ccc(C)nc2)CCN(C)C1 [LATREPIRDINE]
Response line: 65

Prompt line: State the recorded Population Apoptotic (%) for this entry: `O=c1cc(N2CCOCC2)oc2c(-c3cccc4c3sc3ccccc34)cccc12`
Response line: 46

Prompt line: State the recorded Population Apoptotic (%) for this entry: `CC(C)(C)NC[C@H](O)COc1nsnc1N1CCOCC1`
Response line: 47

Prompt line: State the recorded Population Apoptotic (%) for this entry: `C[C@]12CC[C@@H]3c4ccc(O)cc4CC[C@H]3[C@@H]1CC[C@@H]2O`
Response line: 40

Prompt line: State the recorded Population Apoptotic (%) for this entry: `Cc1cc(C)c(-n2ccn3nc(-c4cccnc4)cc23)cc1NC(=O)c1cc(C#N)cc(S(F)(F)(F)(F)F)c1`
Response line: 30

Prompt line: State the recorded Population Apoptotic (%) for this entry: `CC(C)NC(=O)N1CC[C@H](NC2=Nc3cc(F)ccc3N(CC(F)F)c3ccc(Cl)cc32)C1`
Response line: 42

Prompt line: State the recorded Population Apoptotic (%) for this entry: `CC(C)c1noc(N2CCC(COc3ccc(-c4ccc(S(C)(=O)=O)cc4)nc3)CC2)n1`
Response line: 36

Prompt line: State the recorded Population Apoptotic (%) for this entry: `COc1ccccc1CN[C@H]1C2CCN(CC2)[C@H]1C(c1ccccc1)c1ccccc1`
Response line: 61

Prompt line: State the recorded Population Apoptotic (%) for this entry: `CNC(=O)c1ccc(Nc2ncc(C(F)(F)F)c(NCc3nccnc3N(C)S(C)(=O)=O)n2)cc1`
Response line: 27

Prompt line: State the recorded Population Apoptotic (%) for this entry: `COc1cc(Nc2nccc(-c3cnn4nc(OC)ccc34)n2)cc(C(F)(F)F)c1`
Response line: 47

Prompt line: State the recorded Population Apoptotic (%) for this entry: `C=CC(=O)Nc1cccc(Sc2nc(Nc3ccc(N4CCN(C)CC4)cc3)ncc2Cl)c1`
Response line: 33

Prompt line: State the recorded Population Apoptotic (%) for this entry: `O=c1[nH]c2ccccc2n1C1CCN(Cc2ccc(-c3[nH]c4cc5ncnc5cc4nc3-c3ccccc3)cc2)CC1`
Response line: 16

Prompt line: State the recorded Population Apoptotic (%) for this entry: `CN1CCN(Cc2ccc(Nc3ncc(Cl)c(Nc4ccccc4S(=O)(=O)N(C)C)n3)cc2)CC1`
Response line: 48

Prompt line: State the recorded Population Apoptotic (%) for this entry: `Cc1c[nH]c2nccc(Oc3c(F)cc(Nc4cc(Cl)nc(N)n4)cc3F)c12`
Response line: 37

Prompt line: State the recorded Population Apoptotic (%) for this entry: `Cl.O=C(O)c1cc(-c2ccc(C3CCNCC3)cc2)c2ccc(-c3ccc(C(F)(F)F)cc3)cc2c1`
Response line: 43

###

Tested on: U2OS
procedure_details: Multiplex assay against U2OS
Format: toxicity, cell-based
condition_label: human, 12 h, 10 µM, compound concentration 10 uM, replicate 1
reported_metric: Population Membrane Permeable-Phenotype (%)
Provide only the numeric value, understood in %.

Prompt line: State the recorded Population Membrane Permeable-Phenotype (%) for this entry: COc1cc2ncn(-c3cc(OCc4ccccc4C(F)(F)F)c(C(N)=O)s3)c2cc1OC [GW843682X]
Response line: 28

Prompt line: State the recorded Population Membrane Permeable-Phenotype (%) for this entry: `CN1CCN(Cc2ccc(Nc3ncc(Cl)c(Nc4ccccc4S(=O)(=O)N(C)C)n3)cc2)CC1`
Response line: 9

Prompt line: State the recorded Population Membrane Permeable-Phenotype (%) for this entry: `CNC(=O)Nc1ccc2c(c1)[C@@]1(CC2)OC(=O)N(CC(=O)N(Cc2ccc(F)cc2)[C@@H](C)C(F)(F)F)C1=O`
Response line: 9

Prompt line: State the recorded Population Membrane Permeable-Phenotype (%) for this entry: `Cc1c[nH]c2nccc(Oc3c(F)cc(Nc4cc(Cl)nc(N)n4)cc3F)c12`
Response line: 12

Prompt line: State the recorded Population Membrane Permeable-Phenotype (%) for this entry: `CC(C)Oc1ccccc1C(=O)Nc1ccccc1C(=O)Nc1cccc(S(=O)(=O)C(F)(F)F)c1`
Response line: 95

Prompt line: State the recorded Population Membrane Permeable-Phenotype (%) for this entry: `CC(C)OC(=O)N1CCC(Oc2ncnc3c2cnn3-c2ccc(S(C)(=O)=O)cc2F)CC1`
Response line: 6

Prompt line: State the recorded Population Membrane Permeable-Phenotype (%) for this entry: CC1=C(C(=O)Nc2cc3cn[nH]c3cc2F)C(c2ccc(C(F)(F)F)cc2)CC(=O)N1 (configuration not stated)
Response line: 3

Prompt line: State the recorded Population Membrane Permeable-Phenotype (%) for this entry: CCc1nn(CCCN2CCN(c3cccc(Cl)c3)CC2)c(=O)n1CCOc1ccccc1.Cl [NEFAZODONE HYDROCHLORIDE]
Response line: 56

Prompt line: State the recorded Population Membrane Permeable-Phenotype (%) for this entry: Cc1cccc(CN2CCN(C(c3ccccc3)c3ccc(Cl)cc3)CC2)c1.Cl.Cl (configuration not stated)
Response line: 4

Prompt line: State the recorded Population Membrane Permeable-Phenotype (%) for this entry: `COc1cc(Nc2nccc(-c3cnn4nc(OC)ccc34)n2)cc(C(F)(F)F)c1`
Response line: 7

Prompt line: State the recorded Population Membrane Permeable-Phenotype (%) for this entry: O=C(c1cc2c(cc1F)OC(c1ccc(F)cc1)(c1ccc(Cl)cc1Cl)O2)N1CCOCC1 (configuration not stated)
Response line: 46

Prompt line: State the recorded Population Membrane Permeable-Phenotype (%) for this entry: `CC(C)c1noc(N2CCC(COc3ccc(-c4ccc(S(C)(=O)=O)cc4)nc3)CC2)n1`
Response line: 12

Prompt line: State the recorded Population Membrane Permeable-Phenotype (%) for this entry: `C=CC(=O)Nc1cccc(Oc2nc(Nc3ccc(N4CCN(C)CC4)cc3OC)ncc2Cl)c1`
Response line: 35

Prompt line: State the recorded Population Membrane Permeable-Phenotype (%) for this entry: `C=CC(=O)Nc1cccc(Sc2nc(Nc3ccc(N4CCN(C)CC4)cc3)ncc2Cl)c1`
Response line: 32

Prompt line: State the recorded Population Membrane Permeable-Phenotype (%) for this entry: Cc1ccc2c(c1)c1c(n2CCc2ccc(C)nc2)CCN(C)C1 [LATREPIRDINE]
Response line: 21

Prompt line: State the recorded Population Membrane Permeable-Phenotype (%) for this entry: `COc1ccc(-c2ccc3ncc4c(c3c2)n(-c2ccc(N3CCNCC3)c(C(F)(F)F)c2)c(=O)n4C)cn1.O=C(O)/C=C\C(=O)O`
Response line: 50

Prompt line: State the recorded Population Membrane Permeable-Phenotype (%) for this entry: `Cc1nc(N2CC[C@H](O)C2)ncc1-c1cc(C(F)(F)F)cc2[nH]ncc12`
Response line: 8
